measurement target: T1, human CD147 protein (adsorbed to ELISA plates) (human, UniProt P35613-2 22-205, limits assumed)
T1 construct: also called human CD147 polypeptide; Basigin
T1 sequence (looked up): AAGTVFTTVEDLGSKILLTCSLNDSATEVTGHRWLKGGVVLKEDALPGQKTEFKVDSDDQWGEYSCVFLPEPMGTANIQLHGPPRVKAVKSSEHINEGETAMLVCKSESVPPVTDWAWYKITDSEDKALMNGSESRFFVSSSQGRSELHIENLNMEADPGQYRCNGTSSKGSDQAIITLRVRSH
measurement notes: ELISA, human CD147 protein adsorbed to plate, intact activatable antibody; apparent KD
Please respond with reported pKd for every item in the list.
One number for each entry, as −log10 of the molar value.

[[record]]
binder = "anti-human CD147 activatable antibody hu 3A11 Hc1/Lc1-416-3001 (antibody, also called hu 3A11-416-3001) VH: EVQLVESGGGLVQPGGSLRLSCAASGFTFSNYWMDWVRQAPGKGLEWVGEIRLKSYNYATHYAASVKGRFTISRDDSKNSVYLQMNSLKTEDTAVYYCTAAGTDYWGQGTLVTVSS VL: WQRECSQKNICQYYIGGGSSGGSAVGLLAPPGGLSGRSDNHGGSDIQMTQSPSSLSASVGDRVTITCRASQSVRTDVGWYQQKPGKAPKLLIYYSSNRYTGVPSRFSGSGSGTDFTLTISSLQPEDFATYYCQQDYSSPYTFGQGTKLEIK"
readout = "pKd"
val = 9.31


Dear reader, for each entry below, please note its pKd.
1. anti-human CD147 activatable antibody hu 3A11 Hc1/Lc1-415-3001 (antibody, also called hu 3A11-415-3001) VH: EVQLVESGGGLVQPGGSLRLSCAASGFTFSNYWMDWVRQAPGKGLEWVGEIRLKSYNYATHYAASVKGRFTISRDDSKNSVYLQMNSLKTEDTAVYYCTAAGTDYWGQGTLVTVSS VL: LHGPCHFNNCNTLKLGGGSSGGSAVGLLAPPGGLSGRSDNHGGSDIQMTQSPSSLSASVGDRVTITCRASQSVRTDVGWYQQKPGKAPKLLIYYSSNRYTGVPSRFSGSGSGTDFTLTISSLQPEDFATYYCQQDYSSPYTFGQGTKLEIK
2. anti-human CD147 activatable antibody hu 3A11 Hc1/Lc1-422-3001 (antibody, also called hu 3A11-422-3001) VH: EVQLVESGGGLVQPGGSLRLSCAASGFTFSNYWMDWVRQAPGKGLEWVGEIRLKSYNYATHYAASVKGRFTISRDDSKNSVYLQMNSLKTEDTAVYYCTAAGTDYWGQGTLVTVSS VL: LHGPCHYMNTCHNVKGGGSSGGSAVGLLAPPGGLSGRSDNHGGSDIQMTQSPSSLSASVGDRVTITCRASQSVRTDVGWYQQKPGKAPKLLIYYSSNRYTGVPSRFSGSGSGTDFTLTISSLQPEDFATYYCQQDYSSPYTFGQGTKLEIK
3. anti-human CD147 activatable antibody hu 3A11 Hc1/Lc1-440-3001 (antibody, also called hu 3A11-440-3001) VH: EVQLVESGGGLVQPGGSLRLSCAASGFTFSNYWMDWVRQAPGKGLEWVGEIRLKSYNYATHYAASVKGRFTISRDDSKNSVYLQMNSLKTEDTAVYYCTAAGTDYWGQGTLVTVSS VL: TCLHLTRFNYLSCNKGGGSSGGSAVGLLAPPGGLSGRSDNHGGSDIQMTQSPSSLSASVGDRVTITCRASQSVRTDVGWYQQKPGKAPKLLIYYSSNRYTGVPSRFSGSGSGTDFTLTISSLQPEDFATYYCQQDYSSPYTFGQGTKLEIK

[8.33, 8.81, 8.91]
